B1: LRRC45 (parent)
chain: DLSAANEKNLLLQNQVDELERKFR

# Variants of: B1
# Experiment Notes: protein stability index of a GFP-peptide fusion (GPS, HEK-293T) (PSI 1-6); higher = more stable;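 further: lentivirally expressed fusions sorted by FACS into six bins by GFP to DsRed ratio, PSI derived from sequencing read proportions per bin multiplied by bin number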
# Condition Summary: c terminus: a fixed tail appended
Threshold rule: protein stability index greater than or equal to 4 is Yes; below that, No.

Illustrative cases are given below, each with its answer.
[
  {
    "Mutant Label": "D17S",
    "Class Name": "No"
  },
  {
    "Mutant Label": "N9P",
    "Class Name": "Yes"
  },
  {
    "Mutant Label": "N14S",
    "Class Name": "No"
  },
  {
    "Mutant Label": "N6V",
    "Class Name": "Yes"
  },
  {
    "Mutant Label": "L11D",
    "Class Name": "Yes"
  },
  {
    "Mutant Label": "E20D",
    "Class Name": "Yes"
  },
  {
    "Mutant Label": "D1G",
    "Class Name": "Yes"
  },
  {
    "Mutant Label": "R24Y",
    "Class Name": "Yes"
  },
  {
    "Mutant Label": "F23N",
    "Class Name": "Yes"
  },
  {
    "Mutant Label": "D17V",
    "Class Name": "No"
  }
]

Request: Hi team, for K8T , is the recorded protein stability index at or above 4?
Result: Yes

Request: Determine whether measured protein stability index meets or exceeds 4 for A5N
Result: No
